Recorded values, source ChEMBL document CHEMBL5131385.

test: Half life in Sprague-Dawley rat plasma at 100 mg/kg, ip and measured upto 240 mins by LC-MS analysis; type: ADME, organism-based

- MOLECULE_SMILES: "COCCN1CCN(c2ccc(F)cc2C(=O)Nc2ccc(CNC(=O)OCc3cccnc3)cc2)CC1"
  half-life / min: 52.8

###

experiment: Antiproliferative activity against human U-87 MG cells assessed as inhibition of cell proliferation measured after 72 hrs by CCK8 assay; format: functional, cell-based, U-87MG ATCC

- MOLECULE_SMILES: "O=C(NCc1ccc(NC(=O)c2ccccc2N2CCN(C3CCC3)CC2)cc1)OCc1cccnc1"
  IC50: "620 nM"
- MOLECULE_SMILES: "CCCN1CCN(c2ccccc2C(=O)Nc2ccc(CNC(=O)OCc3cccnc3)cc2)CC1"
  IC50: "420 nM"
- MOLECULE_SMILES: "O=C(NCc1ccc(NC(=O)c2ccccc2N2CCOCC2)cc1)OCc1cccnc1"
  IC50: "890 nM"
- MOLECULE_SMILES: "COCCN1CCN(c2ccc(NC(=O)OC(C)(C)C)cc2C(=O)Nc2ccc(CNC(=O)OCc3cccnc3)cc2)CC1"
  IC50: "> 30000 nM"
- MOLECULE_SMILES: "COCCN1CCN(c2ccc(F)cc2C(=O)Nc2ccc(CNC(=O)OCc3cccnc3)cc2)CC1"
  IC50: "290 nM"
- MOLECULE_SMILES: "COCCN1CCN(c2cccc(F)c2C(=O)Nc2ccc(CNC(=O)OCc3cccnc3)cc2)CC1"
  IC50: "4000 nM"
- MOLECULE_SMILES: "COCCN1CCN(c2ccc(-c3ccccc3)cc2C(=O)Nc2ccc(CNC(=O)OCc3cccnc3)cc2)CC1"
  IC50: "> 30000 nM"
- MOLECULE_SMILES: "CN1CCN(c2ccccc2C(=O)Nc2ccc(CNC(=O)OCc3cccnc3)cc2)CC1"
  IC50: "1250 nM"
- MOLECULE_SMILES: "CC(C)N1CCN(c2ccccc2C(=O)Nc2ccc(CNC(=O)OCc3cccnc3)cc2)CC1"
  IC50: "250 nM"
